measurement target: Full-length glucokinase (beta cell isoform) (Homo sapiens, UniProt P35557)
Construct: Full-length glucokinase (beta cell isoform) was His-tagged at N-terminus; His tag (N); made in house
Sequence (P35557 whole entry, species assumed, canonical isoform): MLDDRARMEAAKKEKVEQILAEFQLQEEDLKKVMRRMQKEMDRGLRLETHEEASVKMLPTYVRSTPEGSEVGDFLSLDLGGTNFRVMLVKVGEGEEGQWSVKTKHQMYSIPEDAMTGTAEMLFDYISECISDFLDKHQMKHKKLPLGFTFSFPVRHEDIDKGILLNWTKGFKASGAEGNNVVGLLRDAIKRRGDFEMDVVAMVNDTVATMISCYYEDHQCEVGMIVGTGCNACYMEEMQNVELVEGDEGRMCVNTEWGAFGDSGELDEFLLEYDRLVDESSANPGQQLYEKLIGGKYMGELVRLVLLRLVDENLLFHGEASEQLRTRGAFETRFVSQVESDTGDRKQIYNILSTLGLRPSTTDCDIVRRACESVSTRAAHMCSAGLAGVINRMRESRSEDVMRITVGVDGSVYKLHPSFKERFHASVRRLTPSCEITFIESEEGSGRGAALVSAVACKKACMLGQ
measurement notes: Glucokinase biochemical assay (PK/LDH-coupled, NADH depletion at 340 nm): % activation, EC50, % max activation
recorded conditions: 10 uM compound; 5 mM glucose; % Activation=(Va/Vo−1)×100; read-out: % Activation at 10 uM
Protocol: Full-length glucokinase (beta cell isoform) was His-tagged at N-terminus and purified by a Ni column followed by size exclusion chromatography. Glucose was obtained from Calbiochem, and other reagents were from Sigma. […] Glucokinase was added to the buffer mixture to initiate the reaction in the presence and absence of compound. Reaction was monitored by absorbance at 340nm due to the depletion of NADH. The initial reaction velocity was measured by the slope of a linear time course of 200-900 sec. […]
Recorded measurements of activation at 10 µM, one per entry
Report the figure in % without appending any unit label.

Look over these answered cases.
compound=Cc1ccc(NC(=O)c2cc(OC3CN(S(C)(=O)=O)C3)c3cc(C)oc3c2)nc1 unit_symbol=% quantitative_readout=76.9
compound=Cn1ccc(NC(=O)c2cc3c(c(Oc4ccc(S(C)(=O)=O)cc4)c2F)CC(C)(C)O3)n1 unit_symbol=% quantitative_readout=249
compound=CN(C)C(=O)c1ccc(Oc2cc(C(=O)Nc3ccc(CO)cn3)cc3c2CC(C)(C)O3)cc1F unit_symbol=% quantitative_readout=47.2
compound=CN(C)C1CN(C(=O)c2ccc(Oc3cc(C(=O)Nc4ccn(C)n4)cc4c3CC(C)(C)O4)cc2)C1 unit_symbol=% quantitative_readout=133
compound=CC(C)NC(=O)c1ccc(Oc2cc(C(=O)Nc3ccn(C)n3)cc3c2CC(C)(C)O3)cc1F unit_symbol=% quantitative_readout=181

Query :: State the recorded activation at 10 µM for this entry: CC1(C)Cc2c(Oc3ccc(S(C)(=O)=O)cc3)cc(C(=O)Nc3cnccn3)cc2O1
Result :: 161

Query :: Which activation at 10 µM value is on record for COc1cnc(NC(=O)c2cc(Oc3ccc(S(C)(=O)=O)cn3)c3cc(C)oc3c2)cn1 ?
Result :: 86.1

Query :: Value lookup for activation at 10 µM; key = Cc1ccc(NC(=O)c2cc(Oc3ccc(S(C)(=O)=O)cc3)c3occc3c2)nc1
Result :: 52.8

Query :: Which activation at 10 µM value is on record for COCC1Cc2c(Oc3ccc(C(=O)N4CCC4)c(F)c3)cc(C(=O)Nc3ccn(C)n3)cc2O1 (stereo not shown) ?
Result :: 73.9

Query :: Report activation at 10 µM for CN(C)C(=O)c1ccc(Oc2cc(C(=O)Nc3ccn(C)n3)cc3sccc23)cc1F please.
Result :: 32.7

Query :: Form field: reported activation at 10 µM of Cn1ccc(NC(=O)c2cc(Oc3ccc(S(C)(=O)=O)cc3Cl)c3c(c2)OC(C)(C)C3)n1
Result :: 212

Query :: What does the record list as activation at 10 µM for CCS(=O)(=O)c1ccc(Oc2cc(C(=O)Nc3ccn(C)n3)cc3c2CC(C)(C)O3)cc1 ?
Result :: 193
